Data credit: patent US8841413B2

# TARGET_UNDER_TEST: Human GLP-1 receptor (Homo sapiens, UniProt P43220)
# Construct: The full-length cDNA was cloned in pcDNA3.1(+); expressed in transfected cells
# Sequence (P43220 24-463): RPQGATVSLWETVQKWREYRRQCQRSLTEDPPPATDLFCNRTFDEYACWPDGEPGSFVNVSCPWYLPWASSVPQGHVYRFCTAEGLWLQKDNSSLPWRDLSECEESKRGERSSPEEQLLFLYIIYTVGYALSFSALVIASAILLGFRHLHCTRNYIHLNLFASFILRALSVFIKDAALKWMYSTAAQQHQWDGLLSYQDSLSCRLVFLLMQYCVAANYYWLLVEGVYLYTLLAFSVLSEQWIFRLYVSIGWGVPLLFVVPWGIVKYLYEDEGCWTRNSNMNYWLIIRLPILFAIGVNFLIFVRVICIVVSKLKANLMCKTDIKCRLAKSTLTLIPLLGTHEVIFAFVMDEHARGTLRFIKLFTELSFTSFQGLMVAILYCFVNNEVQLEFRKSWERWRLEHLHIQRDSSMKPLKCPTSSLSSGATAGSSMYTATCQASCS
# Type: cell-based
# ASSAY_SETUP: 1 nM test compound
Below, each of the compounds is paired with its reported Human GLP-1 R activity (cAMP release), % activity with respect to control value.
Report as a plain number; the unit % is understood.

Worked examples follow.
CCc1cc(OC)ccc1-c1ccc(CC(NC(=O)[C@H](CC(=O)O)NC(=O)[C@H](CO)NC(=O)[C@@H](NC(=O)[C@H](Cc2ccccc2)NC(=O)[C@@H](NC(=O)CNC(=O)[C@H](CCC(N)=O)NC(=O)C(C)(C)NC(=O)[C@@H](N)Cc2c[nH]cn2)[C@@H](C)O)[C@@H](C)O)C(=O)NC(Cc2ccc(-c3ccccc3F)cc2)C(N)=O)cc1 (single isomer, unassigned) : 66
CCc1cc(OC)ccc1-c1ccc(CC(NC(=O)[C@H](CC(=O)O)NC(=O)[C@H](CO)NC(=O)[C@@H](NC(=O)C(C)(Cc2ccccc2F)NC(=O)[C@@H](NC(=O)CNC(=O)[C@H](CCC(N)=O)NC(=O)C2(NC(=O)[C@@H](N)Cc3c[nH]cn3)CC2)[C@@H](C)O)[C@@H](C)O)C(=O)NC(Cc2ccc(-c3ccccc3C)cc2)C(N)=O)cc1 (single isomer, unassigned) : 99
CCc1cc(OC)ccc1-c1ccc(CC(NC(=O)[C@H](CC(=O)O)NC(=O)[C@H](CO)NC(=O)[C@@H](NC(=O)[C@H](Cc2ccccc2)NC(=O)[C@@H](NC(=O)CNC(=O)[C@H](CCC(N)=O)NC(=O)C(C)(C)NC(=O)[C@@H](N)Cc2c[nH]cn2)[C@@H](C)O)[C@@H](C)O)C(=O)NC(Cc2ccc(-c3ccccc3C)cc2)C(N)=O)cc1 (single isomer, unassigned) : 60
CCc1cc(OC)ccc1-c1ccc(CC(NC(=O)[C@H](CC(=O)O)NC(=O)[C@H](CO)NC(=O)[C@@H](NC(=O)[C@H](Cc2ccccc2)NC(=O)[C@@H](NC(=O)CNC(=O)[C@H](CCC(N)=O)NC(=O)C2(NC(=O)[C@@H](N)Cc3c[nH]cn3)CC2)[C@@H](C)O)[C@@H](C)O)C(=O)NC(Cc2ccc(-c3ccccc3C)nc2)C(N)=O)cc1 (single isomer, unassigned) : 86

Attention now shifts to the item below.
Response field Human GLP-1 R activity (cAMP release), % activity with respect to control (Human GLP-1 receptor (Homo sapiens, UniProt P43220)) for item CCc1cc(OC)ccc1-c1ccc(CC(NC(=O)[C@H](CC(=O)O)NC(=O)[C@H](CO)NC(=O)[C@@H](NC(=O)[C@H](Cc2ccccc2)NC(=O)[C@@H](NC(=O)CNC(=O)[C@H](CCC(N)=O)NC(=O)C2(NC(=O)[C@@H](N)Cc3c[nH]cn3)CC2)[C@@H](C)O)[C@@H](C)O)C(=O)NC(Cc2ccc(-c3ccccc3F)cc2)C(N)=O)cc1 (single isomer, unassigned) : 96
